// reported koff per item
Molecular target: T1, Macaca fascicularis IL2Rγ extracellular domain expressed with a C-terminal myc-myc-hexahistidine tag (Macaca fascicularis)
T1 construct: also called mfIL-2Rg-MMH; mfIL-2RG-MMH
T1 chain: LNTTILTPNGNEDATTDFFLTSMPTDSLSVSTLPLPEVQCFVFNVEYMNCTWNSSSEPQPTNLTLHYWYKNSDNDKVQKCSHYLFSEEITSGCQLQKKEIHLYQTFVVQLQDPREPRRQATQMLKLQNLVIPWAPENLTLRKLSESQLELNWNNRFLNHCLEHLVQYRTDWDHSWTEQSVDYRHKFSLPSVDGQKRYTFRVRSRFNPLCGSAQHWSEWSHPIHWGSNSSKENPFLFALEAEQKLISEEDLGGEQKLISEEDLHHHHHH
Test: SPR, captured mAb, 25C, dissociation pH 6.0

{"binder": "H4H12900P (antibody, human IgG4 S228P, kappa, V domains shown, anti-IL2Rgamma mAb expressed with human IgG4 Fc) VH: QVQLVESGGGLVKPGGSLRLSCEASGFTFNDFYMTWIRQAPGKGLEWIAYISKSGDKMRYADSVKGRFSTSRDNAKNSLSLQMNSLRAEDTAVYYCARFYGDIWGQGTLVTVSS VL: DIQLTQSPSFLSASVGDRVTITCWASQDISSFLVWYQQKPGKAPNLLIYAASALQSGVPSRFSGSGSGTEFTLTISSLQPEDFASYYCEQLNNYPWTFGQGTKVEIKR", "unit tag": "s⁻¹", "koff": 0.000671}
{"binder": "H4H12899P (antibody, human IgG4 S228P, kappa, V domains shown, anti-IL2Rgamma mAb expressed with human IgG4 Fc) VH: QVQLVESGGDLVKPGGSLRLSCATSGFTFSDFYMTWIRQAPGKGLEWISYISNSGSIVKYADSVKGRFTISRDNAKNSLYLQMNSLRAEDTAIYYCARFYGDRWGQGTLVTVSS VL: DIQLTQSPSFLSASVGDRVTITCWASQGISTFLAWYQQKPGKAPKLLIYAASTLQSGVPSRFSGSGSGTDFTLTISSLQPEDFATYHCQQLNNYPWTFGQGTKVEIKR", "unit tag": "s⁻¹", "koff": 0.000703}
{"binder": "H4H12890P (antibody, human IgG4 S228P, kappa, V domains shown, anti-IL2Rgamma mAb expressed with human IgG4 Fc) VH: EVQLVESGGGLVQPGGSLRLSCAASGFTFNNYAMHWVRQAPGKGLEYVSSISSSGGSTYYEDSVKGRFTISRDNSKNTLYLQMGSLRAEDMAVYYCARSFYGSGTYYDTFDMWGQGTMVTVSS VL: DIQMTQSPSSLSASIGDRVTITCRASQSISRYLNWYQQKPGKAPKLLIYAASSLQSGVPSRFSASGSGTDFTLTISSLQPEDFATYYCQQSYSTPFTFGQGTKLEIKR", "unit tag": "s⁻¹", "koff": 0.000668}
